# Tested on: Crude diglycosidase
# assay: Examination of temperature in the conversion into isoflavone aglycons by diglycosidase using soybean materials
# Format: biochemical, Penicillium multicolor IAM7153
# Parameters: concentration or dose not given beside the values
# condition_summary: 30° C., heat treatment of enzyme no, reaction time 3 h
Exercise: for every item that follows, state its recorded Decomposition efficiency of glycitin family in defatted soybean.
Answers are plain numbers, in %.

Field Decomposition efficiency of glycitin family in defatted soybean (entry `COc1cc2c(=O)c(-c3ccc(O)cc3)coc2cc1O[C@@H]1O[C@H](COC(=O)CC(=O)O)[C@@H](O)[C@H](O)[C@H]1O` ) reads 44.6

Further cases:
In plain terms, `COc1cc2c(=O)c(-c3ccc(O)cc3)coc2cc1O` has a documented Decomposition efficiency of glycitin family in defatted soybean of 55.4

---

# Tested on: Crude diglycosidase
# assay: Examination of substrate concentration in the conversion into isoflavone aglycons by diglycosidase using soybean materials;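 also: percent of the isoflavone family total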
# Format: biochemical, Penicillium multicolor IAM7153
# condition_summary: concentrated soybean protein, substrate concentration 2%, heat treatment of enzyme no, reaction time 0 h
# Procedure: Into 20 mM acetate buffer of pH 4.0 was suspended 0.1 g, 0.25 g, 0.5 g, 1.0 g, or 1.5 g of each of various soybean materials (roasted soy flour (manufactured by Fuji Shokuryo K.K.), soymilk (manufactured by Gitoh Shokuhin K.K.), defatted soybean (manufactured by Fuji Seiyu K.K.), concentrated soybean protein (manufactured by Fuji Seiyu K.K.)). The pH of the suspension was measured and the liquid volume was adjusted to 4.5 mL while the pH was adjusted to 4.0 with 1N hydrochloric acid. […]
Please go through the items and note down their Decomposition efficiency: ratio of each glycoside/aglycon within its isoflavone family.
Give bare numbers, in %.

What the record says about `CC(=O)OC[C@H]1O[C@@H](Oc2ccc3c(=O)c(-c4ccc(O)cc4)coc3c2)[C@H](O)[C@@H](O)[C@@H]1O` : Decomposition efficiency: ratio of each glycoside/aglycon within its isoflavone family is 44.0

Provide each entry's Decomposition efficiency: ratio of each glycoside/aglycon within its isoflavone family from the list below.
1. O=c1c(-c2ccc(O)cc2)coc2cc(O[C@@H]3O[C@H](CO)[C@@H](O)[C@H](O)[C@H]3O)ccc12
2. COc1cc2c(=O)c(-c3ccc(O)cc3)coc2cc1O
3. O=c1c(-c2ccc(O)cc2)coc2cc(O[C@@H]3O[C@H](CO)[C@@H](O)[C@H](O)[C@H]3O)cc(O)c12
4. COc1cc2c(=O)c(-c3ccc(O)cc3)coc2cc1O[C@@H]1O[C@H](COC(=O)CC(=O)O)[C@@H](O)[C@H](O)[C@H]1O
5. COc1cc2c(=O)c(-c3ccc(O)cc3)coc2cc1O[C@@H]1O[C@H](CO)[C@@H](O)[C@H](O)[C@H]1O
6. COc1cc2c(=O)c(-c3ccc(O)cc3)coc2cc1O[C@@H]1O[C@H](COC(C)=O)[C@@H](O)[C@H](O)[C@H]1O
7. CC(=O)OC[C@H]1O[C@@H](Oc2cc(O)c3c(=O)c(-c4ccc(O)cc4)coc3c2)[C@H](O)[C@@H](O)[C@@H]1O

Reply:
52.8
11.6
50.5
0.4
52.2
35.8
42.9

---

# Test system: Crude diglycosidase
# assay: Examination of pH in the conversion into isoflavone aglycons by diglycosidase using soybean materials
# Assay type: biochemical, Penicillium multicolor IAM7153
# condition_summary: pH3, heat treatment of enzyme yes, reaction time 6 h, 55° C.
Assignment: determine reported Decomposition efficiency of glycitin family in roasted soy flour for the given compounds.
Answers are plain numbers.

For reference, reported Decomposition efficiency of glycitin family in roasted soy flour for `COc1cc2c(=O)c(-c3ccc(O)cc3)coc2cc1O[C@@H]1O[C@H](COC(C)=O)[C@@H](O)[C@H](O)[C@H]1O` stands at 35.6

The reported value for `COc1cc2c(=O)c(-c3ccc(O)cc3)coc2cc1O[C@@H]1O[C@H](CO)[C@@H](O)[C@H](O)[C@H]1O` in terms of Decomposition efficiency of glycitin family in roasted soy flour is 55.1

Moving on to the next compound.
Record `COc1cc2c(=O)c(-c3ccc(O)cc3)coc2cc1O` . Reported Decomposition efficiency of glycitin family in roasted soy flour: 9.3
